Source listed as patent US5602102A.

Target: DPPI (Homo sapiens, UniProt P53634)
Sequence (P53634 231-394 limits assumed): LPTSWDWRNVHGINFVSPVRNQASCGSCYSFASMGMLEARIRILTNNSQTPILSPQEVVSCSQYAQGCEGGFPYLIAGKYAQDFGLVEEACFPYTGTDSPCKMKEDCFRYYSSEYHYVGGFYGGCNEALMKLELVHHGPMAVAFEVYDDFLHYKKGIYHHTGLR
Sequence (P53634 25-134 limits assumed): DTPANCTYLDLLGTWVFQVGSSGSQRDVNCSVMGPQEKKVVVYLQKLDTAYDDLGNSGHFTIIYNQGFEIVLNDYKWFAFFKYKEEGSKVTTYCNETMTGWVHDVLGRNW
Sequence (P53634 395-463 limits assumed): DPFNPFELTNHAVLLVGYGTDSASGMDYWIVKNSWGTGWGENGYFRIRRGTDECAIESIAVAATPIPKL
Experiment: Substrate specificity of human DPPI: hydrolysis of synthetic peptide substrates
Type: biochemical
Set-up: Human DPPI is now established to constitute a 200,000 Da glycoprotein with 24,000 Da subunits; from tissue; host or cells: human cadaveric spleen; unit not given here
Settings: substrate concentration 500 μM
Excerpt: The specificity of human DPPI was studied using a variety of synthetic peptide substrates. These substrates appear in Table 5. Substrates with blocked amino-termini, with proline at the P1 position, arginine at the P2, or containing only single amino acids, were not hydrolyzed. […]
Where a SMILES comes first, the peptide text is derived from it. The star is where a group is joined. βNA = c1ccc2cc(N*)ccc2c1; Cbz = O=C(OCc1ccccc1)*
observation-type: hydrolysis of substrate peptide by human DPPI

NCC(=O)Nc1ccc2ccccc2c1 :: 0
NC(N)=NCCC[C@H](N)C(=O)Nc1ccc2ccccc2c1 :: 0
COc1cc(NC(=O)C(Cc2ccccc2)NC(=O)CN)cc2ccccc12 (stereo not drawn) :: 5750
NC(N)=NCCC[C@H](NC(=O)OCc1ccccc1)C(=O)N[C@@H](CCCN=C(N)N)C(=O)Nc1ccc2ccccc2c1 [CBZ-Arg-Arg-βNA] (Cbz-Arg-Arg-βNA) :: 0
C[C@H](NC(=O)CCC(=O)O)C(=O)N[C@@H](C)C(=O)N[C@@H](C)C(=O)Nc1ccc([N+](=O)[O-])cc1 :: 0
COc1cc(NC(=O)C(Cc2ccc(O)cc2)NC(=O)C(N)CO)cc2ccccc12 (stereo not drawn) :: 1750

* * *

molecular target: DPPI (Homo sapiens, UniProt P53634); experiment: Substrate specificity of human DPPI: hydrolysis of synthetic peptide substrates; format: biochemical; set-up: Human DPPI is now established to constitute a 200,000 Da glycoprotein with 24,000 Da subunits; from tissue; host or cells: human cadaveric spleen; unit not given here; conditions: substrate concentration 100 μM
Where a SMILES comes first, the peptide text is derived from it. The star is where a group is joined. AMC = Cc1cc(=O)oc2cc(N*)ccc12; βNA = c1ccc2cc(N*)ccc2c1; Cbz = O=C(OCc1ccccc1)*
# hydrolysis of substrate peptide by human DPPI per record follows
observation-type: hydrolysis of substrate peptide by human DPPI

NC(N)=NCCC[C@H](NC(=O)OCc1ccccc1)C(=O)N[C@@H](CCCN=C(N)N)C(=O)Nc1ccc2ccccc2c1 [CBZ-Arg-Arg-βNA] (Cbz-Arg-Arg-βNA) :: 0
Cc1cc(=O)oc2cc(NC(=O)[C@H](CCCN=C(N)N)NC(=O)[C@H](Cc3ccccc3)NC(=O)[C@@H]3CCCN3)ccc12 [Pro-Phe-Arg-AMC] (H-Pro-Phe-Arg-{AMC}) :: 0
Cc1cc(=O)oc2cc(NC(=O)C(CCCCN)NC(=O)OCc3ccccc3)ccc12 (stereo not shown) [CBZ-Lys-AMC] :: 0
O=C(Nc1ccc2ccccc2c1)[C@@H]1CCCN1 [Pro-βNA] :: 0
Cc1cc(=O)oc2cc(NC(=O)[C@H](CCCN=C(N)N)NC(=O)[C@@H]3CCCN3C(=O)CNC(=O)OCc3ccccc3)ccc12 [CBZ-Gly-Pro-Arg-AMC] (Cbz-Gly-Pro-Arg-{AMC}) :: 0
NCC(=O)N[C@@H](Cc1ccccc1)C(=O)Nc1ccc2ccccc2c1 [Gly-Phe-βNA] (H-Gly-Phe-βNA) :: 2380
COc1cc(NC(=O)C(CCCN=C(N)N)NC(=O)CN)cc2ccccc12 (stereo not drawn) [Gly-Arg-MNA] :: 2500
